B1: TPR t1 (parent)
chain: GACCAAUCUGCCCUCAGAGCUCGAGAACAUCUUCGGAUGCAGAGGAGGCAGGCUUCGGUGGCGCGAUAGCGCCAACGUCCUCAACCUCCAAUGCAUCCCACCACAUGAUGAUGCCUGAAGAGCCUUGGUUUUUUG

- Variants of: B1
- protocol_text: polymerase ribozyme fitness, log enrichment relative to wild type (log ratio); higher = more active; in vitro selection for triplet polymerase activity
measurement_label: polymerase ribozyme fitness (log ratio)
Lab note: record just the number, no unit beside it.

// recorded polymerase ribozyme fitness (log ratio) for A2C C13A G36C G120U : -1.59

// recorded polymerase ribozyme fitness (log ratio) for G69A U78G A118U : -1.62

// recorded polymerase ribozyme fitness (log ratio) for G69C C72U : -0.189

// recorded polymerase ribozyme fitness (log ratio) for C53U G71A G93A : -1.43

// recorded polymerase ribozyme fitness (log ratio) for A37G G42A C79G C104U : -4.86

// recorded polymerase ribozyme fitness (log ratio) for C28U C49G A91U U106A : -5.37

// recorded polymerase ribozyme fitness (log ratio) for U38G A83G : -1.98

// recorded polymerase ribozyme fitness (log ratio) for C3A C53G : -1.72

// recorded polymerase ribozyme fitness (log ratio) for U54A C94A : -1.16

// recorded polymerase ribozyme fitness (log ratio) for C70U C104U U130G : -0.752

// recorded polymerase ribozyme fitness (log ratio) for G44A G52U G63U U87A : -5.6

// recorded polymerase ribozyme fitness (log ratio) for A18U U21C G36A C114U : -3.69

// recorded polymerase ribozyme fitness (log ratio) for C56U C98A : -5.17

// recorded polymerase ribozyme fitness (log ratio) for A6U C53U G69U G128C : -0.945

// recorded polymerase ribozyme fitness (log ratio) for G52C G58A C79A C85U : -2.78

// recorded polymerase ribozyme fitness (log ratio) for C3G G128C : -0.539

// recorded polymerase ribozyme fitness (log ratio) for A50U A84G : -3.04

// recorded polymerase ribozyme fitness (log ratio) for C82G G120U : -0.592

// recorded polymerase ribozyme fitness (log ratio) for A16U G52U G117A U130C U131G : -4.01

// recorded polymerase ribozyme fitness (log ratio) for U33A C53A C62U : -5.53

// recorded polymerase ribozyme fitness (log ratio) for C53U G93A : -0.887

// recorded polymerase ribozyme fitness (log ratio) for C15G C97U C124U : -1.59

// recorded polymerase ribozyme fitness (log ratio) for C8U A26U A83C G127C U133A : -5.14

// recorded polymerase ribozyme fitness (log ratio) for U54G C101U U106A U116G : -3.87

// recorded polymerase ribozyme fitness (log ratio) for A27G G39U C73U G110C : -3.91

// recorded polymerase ribozyme fitness (log ratio) for C15A C62A C76U U96G C115U : -6.47

// recorded polymerase ribozyme fitness (log ratio) for G10A C49U : -0.363

// recorded polymerase ribozyme fitness (log ratio) for C28U C115U : -3.6

// recorded polymerase ribozyme fitness (log ratio) for G45U G48A U132C : -1.5

// recorded polymerase ribozyme fitness (log ratio) for C3A C15U C40U C88U : -3.42

// recorded polymerase ribozyme fitness (log ratio) for A29C A41C C56G U59A G69U C82U A121C G135C : -6.04

// recorded polymerase ribozyme fitness (log ratio) for A26U U78C : -2.92

// recorded polymerase ribozyme fitness (log ratio) for C80U G128C : -3.33

// recorded polymerase ribozyme fitness (log ratio) for A6G U7G A18C G52U U81A C115G : -4.51

// recorded polymerase ribozyme fitness (log ratio) for U59G C62A A95U : -3.76

// recorded polymerase ribozyme fitness (log ratio) for C20U C28A : -3.79

// recorded polymerase ribozyme fitness (log ratio) for C15G U59G C123G U129G : -1.59

// recorded polymerase ribozyme fitness (log ratio) for G60U A83U A108C C114G G117C : -5.39

// recorded polymerase ribozyme fitness (log ratio) for C4A A16G U54G C101A U112A A119G : -0.726

// recorded polymerase ribozyme fitness (log ratio) for C34U C72U U106A : -4.34

// recorded polymerase ribozyme fitness (log ratio) for A2U A46U G47C G71A U132C : -3.81

// recorded polymerase ribozyme fitness (log ratio) for C62U A83G : -1.18

// recorded polymerase ribozyme fitness (log ratio) for A41C A105C : -5.23

// recorded polymerase ribozyme fitness (log ratio) for A18U G44A U54A C86U U106A : -5.25

// recorded polymerase ribozyme fitness (log ratio) for C3G C22A G69A C124G G128C : -4.83

// recorded polymerase ribozyme fitness (log ratio) for C3U G57U : -0.67

// recorded polymerase ribozyme fitness (log ratio) for G42A G47A : -2.34

// recorded polymerase ribozyme fitness (log ratio) for C3U C22A A74U G77A U106C C114A : -4.34

// recorded polymerase ribozyme fitness (log ratio) for C13U C28G G120C : -1.05

// recorded polymerase ribozyme fitness (log ratio) for C34A C85A G113A : -4.78

// recorded polymerase ribozyme fitness (log ratio) for A6U G71U : -0.239

// recorded polymerase ribozyme fitness (log ratio) for G69U C82U : -0.267

// recorded polymerase ribozyme fitness (log ratio) for U7A C56G U92C : -1.74

// recorded polymerase ribozyme fitness (log ratio) for G48U G52U C73U A90U C124G : -1.99

// recorded polymerase ribozyme fitness (log ratio) for C88G C102U G117U : -6.89

// recorded polymerase ribozyme fitness (log ratio) for C12A G117A : -1.29

// recorded polymerase ribozyme fitness (log ratio) for C86A C98U : -0.468

// recorded polymerase ribozyme fitness (log ratio) for C56U C85G : -2.65

// recorded polymerase ribozyme fitness (log ratio) for C20U C72U U78A A111G C123G G135C : -3.01

// recorded polymerase ribozyme fitness (log ratio) for G113U C124G : -1.38

// recorded polymerase ribozyme fitness (log ratio) for A46U C101G : -3.57

// recorded polymerase ribozyme fitness (log ratio) for C3A A5C G48A C101A G122A : -1.86

// recorded polymerase ribozyme fitness (log ratio) for A5U G51U : -3.03

// recorded polymerase ribozyme fitness (log ratio) for U106G C123U G127A : -3.09

// recorded polymerase ribozyme fitness (log ratio) for G44C G61U C102A : -2.81

// recorded polymerase ribozyme fitness (log ratio) for U78C A84C : -0.194

// recorded polymerase ribozyme fitness (log ratio) for U21C G39U C56U C101U U112A : -0.219

// recorded polymerase ribozyme fitness (log ratio) for C15A C53G C102U : -4.5

// recorded polymerase ribozyme fitness (log ratio) for C15A A41C C104U : -2.15

// recorded polymerase ribozyme fitness (log ratio) for A46U C62U : -1.12

// recorded polymerase ribozyme fitness (log ratio) for A18C C53U A121U : -0.907

// recorded polymerase ribozyme fitness (log ratio) for G52U A66U : -1.95

// recorded polymerase ribozyme fitness (log ratio) for C11G U33G A95G C101U G120C : -5.25

// recorded polymerase ribozyme fitness (log ratio) for C11U A43U C56U C114G G128C : -5.28

// recorded polymerase ribozyme fitness (log ratio) for G35U U112A : -2.86

// recorded polymerase ribozyme fitness (log ratio) for G17A G120U : -1.62

// recorded polymerase ribozyme fitness (log ratio) for C12G G44U G60U A100U : -0.779

// recorded polymerase ribozyme fitness (log ratio) for C8G C85A A121U : 1.35

// recorded polymerase ribozyme fitness (log ratio) for G52U G113U : -3.87

// recorded polymerase ribozyme fitness (log ratio) for G35C C49G C98G : -2.89

// recorded polymerase ribozyme fitness (log ratio) for C4U U78C : -0.902

// recorded polymerase ribozyme fitness (log ratio) for A29U G42C G69U A119U : -2.46

// recorded polymerase ribozyme fitness (log ratio) for G45C G48C C53G G107A A121G : -5.84

// recorded polymerase ribozyme fitness (log ratio) for C73U C86U U109C G117A G135U : -6.47

// recorded polymerase ribozyme fitness (log ratio) for G93A C114A G122A U131A : -3.27

// recorded polymerase ribozyme fitness (log ratio) for C15U A27C C85A G117C C124G G128A U129G : -6.66

// recorded polymerase ribozyme fitness (log ratio) for C64U U106C : -0.52

// recorded polymerase ribozyme fitness (log ratio) for C13A A18G C73A : -4.96

// recorded polymerase ribozyme fitness (log ratio) for A74C C79A U125A : -1.75

// recorded polymerase ribozyme fitness (log ratio) for C8U C72G : 0.517

// recorded polymerase ribozyme fitness (log ratio) for C4A C85A : -2.93
